Reference for the values: patent US20230014907A1

Recorded IC50 values for a group of compounds are listed next.
Target: APOL1 G1 Protein (Homo sapiens, UniProt O14791, I384M/S342G)
Sequence (O14791 28-398 S342G/I384M): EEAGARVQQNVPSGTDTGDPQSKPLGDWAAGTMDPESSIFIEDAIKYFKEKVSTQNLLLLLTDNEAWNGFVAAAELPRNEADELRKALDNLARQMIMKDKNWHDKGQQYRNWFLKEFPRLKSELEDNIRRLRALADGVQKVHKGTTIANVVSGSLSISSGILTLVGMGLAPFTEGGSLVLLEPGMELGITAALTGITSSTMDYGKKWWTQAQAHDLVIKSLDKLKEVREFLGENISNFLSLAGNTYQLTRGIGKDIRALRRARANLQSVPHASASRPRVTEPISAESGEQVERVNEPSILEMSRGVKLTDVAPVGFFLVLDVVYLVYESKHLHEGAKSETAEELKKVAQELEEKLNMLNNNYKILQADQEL
Test: Trypanosoma brucei brucei Lysis Assay Using APOL1 Recombinant Protein (AlamarBlue viability)
Assay type: cell-based
Details: read-out: Trypanosomal Assay (IC50)

Worked set:
>>> test_result("O=C(CCc1c(-c2ccc(F)cc2)[nH]c2c(F)cc(F)cc12)NC(CCO)C(=O)O (centres unmarked)")
"250 to 1000 nM"
>>> test_result("O=C(CCc1c(-c2ccc(F)cc2)[nH]c2c(F)cc(F)cc12)NC1(CCO)CC1")
"> 1000 nM"
>>> test_result("CC(NC(=O)CCc1c(-c2ccc(F)cc2)[nH]c2c(F)cc(F)cc12)C(F)(F)F (racemic)")
"250 to 1000 nM"
>>> test_result("Cc1cc(NC(=O)CCc2c(-c3ccc(F)cc3)[nH]c3c(F)cc(F)cc23)no1")
"> 1000 nM"
>>> test_result("O=C(CCc1c(-c2ccc(F)cc2)[nH]c2c(F)cc(F)cc12)Nc1cccc(=O)[nH]1")
"> 1000 nM"
>>> test_result("O=C(CCc1c(-c2ccc(F)cc2)[nH]c2c(F)cc(F)cc12)N[C@H]1CC[C@H](O)C1")
"> 1000 nM"
>>> test_result("O=C(CCc1c(-c2ccc(F)cc2)[nH]c2ccc(F)cc12)N[C@@H]1CCC[C@@H]1O")
"250 to 1000 nM"

Now for the compound whose IC50 we want.
Item "O=C(CCc1c(-c2ccc(F)cc2)[nH]c2ccc(F)cc12)NCC(F)F" : provide IC50 > 1000 nM

* * *

Target: APOL1 G1 Protein (Homo sapiens, UniProt O14791, I384M/S342G)
Assay: Trypanosoma brucei brucei Lysis Assay Using APOL1 Recombinant Protein (AlamarBlue viability)
Details: read-out: Trypanosomal Assay (IC50)
pIC50: −log10 of the molar value.
value-type: pIC50

# annotated cases, reported pIC50 shown
>>> test_result("O=C(CCc1c(-c2ccc(F)cc2)[nH]c2ccc(F)cc12)NCCO")
"< 6.00"
>>> test_result("N#CC(CO)NC(=O)CCc1c(-c2ccc(F)cc2)[nH]c2c(F)cc(F)cc12 (centres unmarked)")
"6.00 to 6.60"
>>> test_result("O=C(CCc1c(-c2ccc(F)cc2)[nH]c2c(F)cc(F)cc12)N1CCC[C@@H]1CO")
"6.00 to 6.60"
>>> test_result("C[C@H](O)CNC(=O)CCc1c(-c2ccc(F)cc2)[nH]c2ccc(F)cc12")
"< 6.00"
>>> test_result("CC(C)(NC(=O)CCc1c(-c2ccc(F)cc2)[nH]c2ccc(F)cc12)C(N)=O")
"6.00 to 6.60"

Recall and state the measured pIC50 for O=C(CCc1c(-c2ccc(F)cc2)[nH]c2c(F)cc(F)cc12)NC1CCCNC1=O (centres unmarked) . 6.00 to 6.60

Give pIC50 for O=C(CCc1c(-c2ccc(F)cc2)[nH]c2ccc(F)cc12)N1CCCC(O)C1 (centres unmarked) < 6.00

Read off the recorded pIC50 for "O=C(CCc1c(-c2ccc(F)cc2)[nH]c2c(F)cc(F)cc12)Nc1ccc[nH]c1=O" < 6.00

* * *

Biological target: G1 APOL1 (Homo sapiens, UniProt O14791, I384M/S342G)
Construct: expressed in transfected cells
Assay: Acute APOL1 Thallium Assay with Inducible Stable Clones of HEK 293 Cells
Format: cell-based
Conditions: HEK 293 inducible stable clones, G1 APOL1; read-out: Thallium Assay (IC50)
Description: Acute APOL1 Thallium Assay with Inducible Stable Clones of HEK 293 Cells Apolipoprotein L1 (APOL1) proteins form potassium-permeable cation pores in the plasma membrane. APOL1 risk variants (G1 and G2) induce greater potassium flux than G0 in HEK293 cells. […] The increase of fluorescence in the assay represents the influx of Tl+ into the cell specifically through the potassium channel (i.e. through APOL1 pores), providing a functional measurement of potassium channel/pore activity. […]
pIC50: −log10 of the molar value.
pIC50 values by entry

Answered examples (3):
>>> test_result("O=C(CCc1c(-c2ccc(F)cc2)[nH]c2c(F)cc(F)cc12)NCC1(CO)COC1")
"< 6.00"
>>> test_result("Cc1cc(F)c2[nH]c(-c3ccc(F)cc3)c(CCC(=O)N[C@H](CO)C(N)=O)c2c1")
"< 6.00"
>>> test_result("O=C(Cc1cnccn1)NCCc1c(-c2ccc(F)cc2)[nH]c2c(F)cc(F)cc12")
"< 6.00"

Item "O=C1N[C@H](C(=O)NCCc2c(-c3ccc(F)cc3)[nH]c3c(F)cc(F)cc23)CO1" : provide pIC50 < 6.00

Report pIC50 for "NCCCc1c(-c2ccc(F)cc2)[nH]c2c(F)cc(F)cc12" 6.00 to 6.60

Please report the measured pIC50 for "CC(C)(CO)C(=O)NCCc1c(-c2ccc(F)cc2)[nH]c2c(F)cc(F)cc12" 6.00 to 6.60

Fill in pIC50 for record "NC(=O)[C@@H](CO)NC(=O)OCCc1c(-c2ccc(F)cc2)[nH]c2c(F)cc(F)cc12" > 6.60

Read off the recorded pIC50 for "O=C(CCc1c(-c2ccc(F)cc2)[nH]c2ccc(F)cc12)N[C@@H]1CCC[C@@H]1O" 6.00 to 6.60

Report pIC50, nothing else, for this molecule: "C[C@@H](CO)NC(=O)CCCc1c(-c2ccc(F)cc2)[nH]c2c(F)cc(F)cc12" 6.00 to 6.60

Item "O=C(CCc1c(-c2ccc(F)cc2)[nH]c2ccc(F)cc12)N[C@H]1C[C@@H]1c1ccccc1" : provide pIC50 < 6.00

For the molecule "CS(=O)(=O)CNC(=O)CCc1c(-c2ccc(F)cc2)[nH]c2c(F)cc(F)cc12" , give its measured pIC50 value. < 6.00

// fetch pIC50 given entry "Cn1ccc(C(=O)NCCc2c(-c3ccc(F)cc3)[nH]c3c(F)cc(F)cc23)n1" < 6.00

Please give the documented pIC50 of "O=C(CCc1c(-c2ccc(F)cc2)[nH]c2c(F)cc(F)cc12)NC[C@H](O)C(F)(F)F" < 6.00

Give the reported value of pIC50 for this record: "Cn1nnnc1NC(=O)CCc1c(-c2ccc(F)cc2)[nH]c2c(F)cc(F)cc12" < 6.00

Given "O=C(NCCc1c(-c2ccc(F)cc2)[nH]c2c(F)cc(F)cc12)c1ccnnc1" , respond with its pIC50. < 6.00

Given "O=C(Cn1nccn1)NCCc1c(-c2ccc(F)cc2)[nH]c2c(F)cc(F)cc12" , respond with its pIC50. < 6.00

* * *

This listing pairs compounds with measured pIC50.
Target: APOL1 G1 Protein (Homo sapiens, UniProt O14791, I384M/S342G)
Experiment: Trypanosoma brucei brucei Lysis Assay Using APOL1 Recombinant Protein (AlamarBlue viability)
Conditions: read-out: Trypanosomal Assay (IC50)
Text: Trypanosoma brucei brucei is a blood stream parasite to which human, gorillas and baboon are immune due to the presence of the APOL1 protein in their HDL particles. […] Briefly, the AlamarBlue active compound, the resazurin, a blue, water soluble, non-toxic and cell permeable molecule, which can be followed by absorbance, is reduced by various metabolic pathways into resorufin, a red compound which can be followed by either absorbance or fluorescence. […]
pIC50: −log10 of the molar value.

Record excerpt, results attached:
>>> test_result("O=C(CCc1c(-c2ccc(F)cc2)[nH]c2ccc(F)cc12)NCCCO [Compound 85]")
"< 6.00"
>>> test_result("CNC(=O)C(C)NC(=O)CCc1c(-c2ccc(F)cc2)[nH]c2ccc(F)cc12 (racemic) [Compound 11]")
"6.00 to 6.60"
>>> test_result("CN(CC(F)(F)F)C(=O)CCc1c(-c2ccc(F)cc2)[nH]c2c(F)cc(F)cc12 [Compound 166]")
"< 6.00"

Proceeding to the next compound to report its pIC50.
Note pIC50 for the compound shown: O=C(CCc1c(-c2ccc(F)cc2)[nH]c2ccc(F)cc12)NC1(CO)CC1 [Compound 40] 6.00 to 6.60
